# IC50 per entry
# target.under.test: KRAS G12D (Homo sapiens (Human), UniProt P01116+P62937, G12D)
# Sequence (P01116-2 other isoform, or with tags, fused parts or gaps G12D, one chain of several): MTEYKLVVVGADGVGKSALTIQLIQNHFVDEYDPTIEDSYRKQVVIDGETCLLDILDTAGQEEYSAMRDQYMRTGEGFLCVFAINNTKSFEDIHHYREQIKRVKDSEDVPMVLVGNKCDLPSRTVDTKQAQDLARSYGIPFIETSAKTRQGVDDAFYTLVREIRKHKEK
# assay.method.text: Ras-Raf (BRAF RBD) disruption / FRET / MOA assay, KRAS G12D
# Type: biochemical
# experimental.setup: Ras-Raf disruption/FRET/MOA assay; class symbols; read-out: KRAS G12D FRET data IC50

IC50 for KRAS G12D (Homo sapiens (Human), UniProt P01116+P62937, G12D) with input C=CC(=O)N1CC[C@]2(CCN2C(=O)N(C)[C@H](C(=O)N[C@H]2Cc3nc(cs3)-c3ccc4c(c3)c(c(-c3cccnc3[C@H](C)OC)n4CC)CC(C)(C)COC(=O)[C@@H]3CCCN(N3)C2=O)C(C)C)C1 (atropisomer, axis not shown) equals 100 to 1000 nM

IC50 for KRAS G12D (Homo sapiens (Human), UniProt P01116+P62937, G12D) with input C=CC(=O)N1CC[C@@]2(CCN(C(=O)N(C)[C@H](C(=O)N[C@H]3Cc4nc(cs4)-c4ccc5c(c4)c(c(-c4cccnc4[C@H](C)OC)n5CC)CC(C)(C)COC(=O)[C@@H]4CCCN(N4)C3=O)C(C)C)C2)C1 (atropisomer, axis not shown) equals 100 to 1000 nM

* * *

# target.under.test: KRAS G12D (Homo sapiens (Human), UniProt P01116+P62937, G12D)
# assay.method.text: Ras-Raf (BRAF RBD) disruption / FRET / MOA assay, KRAS G12D
# Format: biochemical
# experimental.setup: Ras-Raf disruption/FRET/MOA assay; class symbols; read-out: KRAS G12D FRET data IC50
attribute.measured: IC50

INSERT INTO assay_data (molecule, value_reported) VALUES
  ('C=CC(=O)N1CC[C@H](C(=O)N(C)[C@H](C(=O)N[C@H]2Cc3cc(cc(O)c3F)-c3ccc4c(c3)c(c(-c3ccccc3CCOC)n4CC)CC(C)(C)COC(=O)[C@@H]3CCCN(N3)C2=O)C(C)C)C1', '> 10000 nM'),
  ('CCn1c(-c2cccnc2[C@H](C)OC)c2c3cc(ccc31)-c1cc(O)cc(c1)C[C@H](NC(=O)[C@H](C(C)C)N1CC[C@@]3(CCN(C(=O)/C=C/CN(C)C)C3)C1=O)C(=O)N1CCC[C@H](N1)C(=O)OCC(C)(C)C2 (atropisomer, axis not shown)', '100 to 1000 nM'),
  ('CCn1c(-c2cccnc2[C@H](C)OC)c2c3cc(ccc31)-c1cccc(c1)C[C@H](NC(=O)[C@H](C(C)C)N(C)C(=O)[C@H]1CCN(C(=O)C#CC(C)(C)N3CCC(F)(F)C3)C1)C(=O)N1CCC[C@H](N1)C(=O)OCC(C)(C)C2 (atropisomer, axis not shown)', '> 10000 nM');

Let's switch to this molecule now.
IC50 reading for CO[C@@H](C)c1ncccc1-c1c2c3cc(ccc3n1CC(F)(F)F)-c1cccc(c1)C[C@H](NC(=O)[C@H](C(C)C)N(C)C(=O)N1CCC3(CC1)CN(C(=O)/C=C/CN(C)C)C3)C(=O)N1CCC[C@H](N1)C(=O)OCC(C)(C)C2 (atropisomer, axis not shown) : 100 to 1000 nM

* * *

# target.under.test: KRAS G12S (Homo sapiens (Human), UniProt P01116+P62937, G12S)
# Sequence (P01116-2 other isoform, or with tags, fused parts or gaps G12S): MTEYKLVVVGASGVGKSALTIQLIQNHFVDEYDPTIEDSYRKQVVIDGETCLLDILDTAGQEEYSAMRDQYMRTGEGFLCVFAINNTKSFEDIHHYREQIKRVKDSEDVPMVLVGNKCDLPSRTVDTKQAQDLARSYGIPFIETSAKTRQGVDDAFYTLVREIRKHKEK
# Sequence (P62937 whole entry): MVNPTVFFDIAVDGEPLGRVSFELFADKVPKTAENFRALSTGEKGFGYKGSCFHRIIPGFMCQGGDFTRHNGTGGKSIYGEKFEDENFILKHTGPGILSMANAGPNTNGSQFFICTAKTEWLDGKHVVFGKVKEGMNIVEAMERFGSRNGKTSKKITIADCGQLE
# assay.method.text: Ras-Raf (BRAF RBD) disruption / FRET / MOA assay, KRAS G12S
# Type: biochemical
# experimental.setup: Ras-Raf disruption/FRET/MOA assay; class symbols; read-out: KRAS G12S FRET data IC50
# IC50 per entry

See these solved cases before continuing.
INSERT INTO results (compound, value_reported) VALUES
  ('CCn1c(-c2ccccc2CCOC)c2c3cc(ccc31)-c1cc(O)cc(c1)C[C@H](NC(=O)[C@H](C(C)C)N(C)C(=O)c1ccc(N(C)C(=O)/C=C/CN(C)C)cc1)C(=O)N1CCC[C@H](N1)C(=O)OCC(C)(C)C2 [Example A220]', '> 10000 nM'),
  ('CCn1c(-c2cccnc2[C@H](C)OC)c2c3cc(ccc31)-c1cccc(c1)C[C@H](NC(=O)[C@H](C(C)C)N(C)C(=O)[C@H]1CCN(C(=O)/C=C/CN3CC(OC)C3)C1)C(=O)N1CCC[C@H](N1)C(=O)OCC(C)(C)C2 (atropisomer, axis not shown) [Example A203]', '> 10000 nM'),
  ('C=CC(=O)N1CC(C(=O)N(C)[C@H](C(=O)N[C@H]2Cc3cccc(c3)-c3ccc4c(c3)c(c(-c3cccnc3[C@H](C)OC)n4CC)CC(C)(C)COC(=O)[C@@H]3CCCN(N3)C2=O)C(C)C)C1 (atropisomer, axis not shown) [Example A467]', '> 10000 nM');

IC50 reading for C=CC(=O)N1CCOC2(C1)CN(C(=O)N(C)[C@H](C(=O)N[C@H]1Cc3nc(cs3)-c3ccc4c(c3)c(c(-c3cccnc3[C@H](C)OC)n4CC(F)(F)F)CC(C)(C)COC(=O)[C@@H]3CCCN(N3)C1=O)C(C)C)C2 (atropisomer, axis not shown) [Example A604] : 100 to 1000 nM

IC50 reading for C=CC(=O)N1C[C@H](C)[C@H](C(=O)N(C)[C@H](C(=O)N[C@H]2Cc3cc(O)cc(c3)-c3ccc4c(c3)c(c(-c3ccccc3CCOC)n4CC)CC(C)(C)COC(=O)[C@@H]3CCCN(N3)C2=O)C(C)C)C1 [Example A041] : 100 to 1000 nM

IC50 reading for C=CC(=O)N1CCN(C(=O)N(C)[C@H](C(=O)N[C@H]2Cc3cc(O)cc(c3)-c3ccc4c(c3)c(c(-c3cccnc3[C@H](C)OC)n4CC)CC(C)(C)COC(=O)[C@@H]3CCCN(N3)C2=O)C(C)C)CC1 (atropisomer, axis not shown) [Example A262] : 10 to 100 nM

IC50 reading for C=CC(=O)N1CCOC2(CCN(C(=O)N(C)[C@H](C(=O)N[C@H]3Cc4nc(cs4)-c4ccc5c(c4)c(c(-c4cccnc4[C@H](C)OC)n5CC)CC(C)(C)COC(=O)[C@@H]4CCCN(N4)C3=O)C(C)C)CC2)C1 (atropisomer, axis not shown) [Example A695] : 100 to 1000 nM

IC50 reading for C=CC(=O)N1CC[C@H](C(=O)N(C)[C@H](C(=O)N[C@H]2Cc3cc(O)cc(c3)-c3ccc4c(c3)c(c(-c3cccnc3)n4[C@H](C)C#N)CC(C)(C)COC(=O)[C@@H]3CCCN(N3)C2=O)C(C)C)C1 [Example A193] : 100 to 1000 nM
